Cited source: patent US20200024330A1

Biological target: HIV-1 JR-CSF Env N301A (HIV-1 JR-CSF) (UniProt P20871)
Experiment: cell-based or functional assay
Listing of recorded Fold IC50 increase relative to wild-type by entry.
Provide the reading as a plain figure in fold.

[[record]]
binder = "PGT-125 (antibody, V domains shown) VH: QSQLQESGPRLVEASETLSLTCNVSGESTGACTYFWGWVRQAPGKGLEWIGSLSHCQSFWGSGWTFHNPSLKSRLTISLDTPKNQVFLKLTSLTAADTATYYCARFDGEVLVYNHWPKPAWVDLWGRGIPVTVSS VL: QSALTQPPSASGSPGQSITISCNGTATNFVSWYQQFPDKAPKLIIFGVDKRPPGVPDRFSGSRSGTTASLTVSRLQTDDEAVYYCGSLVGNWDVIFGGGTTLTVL"
reported_value = 213


Here is the next item to consider.
Specify Fold IC50 increase relative to wild-type for PGT-135 (antibody, V domains shown) VH: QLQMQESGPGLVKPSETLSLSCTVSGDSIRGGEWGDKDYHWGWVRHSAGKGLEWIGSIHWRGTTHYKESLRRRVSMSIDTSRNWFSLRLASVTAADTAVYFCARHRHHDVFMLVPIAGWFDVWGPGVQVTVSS VL: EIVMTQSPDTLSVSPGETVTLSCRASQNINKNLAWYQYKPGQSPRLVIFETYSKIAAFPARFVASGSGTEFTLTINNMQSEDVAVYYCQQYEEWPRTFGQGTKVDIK and stop.
0.5
